The reader will find pIC50 measurements below, all made with SNAP-hSPR (sepiapterin reductase, SPR) (Homo sapiens, UniProt P35270).
Sequence (P35270 whole entry): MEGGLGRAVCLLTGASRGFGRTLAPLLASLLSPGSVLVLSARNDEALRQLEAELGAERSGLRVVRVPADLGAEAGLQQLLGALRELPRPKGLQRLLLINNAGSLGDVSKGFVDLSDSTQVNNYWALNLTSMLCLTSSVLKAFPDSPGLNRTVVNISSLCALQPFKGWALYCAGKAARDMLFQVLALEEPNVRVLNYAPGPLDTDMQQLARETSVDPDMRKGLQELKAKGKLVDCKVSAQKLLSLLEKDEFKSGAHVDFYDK
When answering, recall that pIC50 equals minus log10 of the concentration in mol/L, and write that number alone.

Answer with the recorded pIC50 for the molecule listed here: Cc1c(C(=O)N2C[C@@H]3CN(C(=O)OC(C)(C)C)C[C@@H]32)cnn1-c1nn2cccc2c(=O)[nH]1 [Q-0857]
8.52

// fetch pIC50 given entry Cc1c(C(=O)N2CCN(S(=O)(=O)c3ccc(F)cc3)CC2)cnn1-c1nn2cccc2c(=O)[nH]1 [Q-1807]
9.00

# return recorded pIC50 for input COC1CCN(C(=O)c2cnn(-c3nc4c(c(=O)[nH]3)CCC4)c2C)C1 (stereo not shown) [Q-0478]
8.22

Output measured pIC50 for this item: Cc1c(C(=O)N(CCC(F)(F)F)CC(F)(F)F)cnn1-c1nc2c(c(=O)[nH]1)CCC2 [Q-0435]
7.70

Tell us which pIC50 value is on record for Cc1cc(-n2cc(C(=O)N3CCC(C(F)(F)F)CC3)c(C)n2)[nH]c(=O)c1 [Q-0440]
8.05

Kindly indicate its recorded pIC50. Item: Cc1c(C(=O)N2CCC(C(C#N)CCF)CC2)cnn1-c1nc2c(c(=O)[nH]1)CCC2 (stereo not shown) [Q-1063]
8.70

Return pIC50 (reported value) for this molecule: Cc1c(C(=O)N2CCC(C(F)(F)F)CC2)cnn1-c1nc2ccnn2c(=O)[nH]1 [Q-0447]
6.40

Identify measured pIC50 associated with Cc1c(C(=O)N2CCC(O)(C3(C#N)CC3)CC2)cnn1-c1nn2cccc2c(=O)[nH]1 [Q-1092]
9.00

Supply recorded pIC50 for Cc1c(C(=O)N2CCC(n3cccc3C#N)CC2)cnn1-c1nn2cccc2c(=O)[nH]1 [Q-1219] here.
9.00

Entry CC(C#N)C1CCN(C(=O)c2cnn(-c3nc4c(c(=O)[nH]3)CCC4)c2C2CC2)CC1 (stereo not shown) [Q-0578] needs its pIC50 filled in; supply it.
8.10

###

TESTED_ON: SNAP-hSPR (sepiapterin reductase, SPR) (Homo sapiens)
METHOD_SUMMARY: biochemical
Format: binding
RUN_PARAMETERS: terbium labelled SNAP-hSPR / SSZ labelled SNAP-EGFP; read-out: hTR-FRET IC50
ENDPOINT: pIC50
Notebook: values listed as pIC50 are -log10 of the concentration (mol/L).

State its pIC50: Cc1c(C(=O)N2CCC(F)(F)CC2)cnn1-c1nc2c(c(=O)[nH]1)CCC2 [Q-0424]
8.40

Please list pIC50 recorded for the compound CCC(=O)C1CCN(C(=O)c2cnn(-c3nn4cccc4c(=O)[nH]3)c2C)CC1 [Q-1112]
9.00

Consider the compound O=C(c1ccc(-c2nc3c(c(=O)[nH]2)CCC3)nc1)N1CCC(C(F)(F)F)CC1 [Q-0472] . State its measured pIC50.
6.70

Report measured pIC50; entry is Cc1cc(=O)[nH]c(-n2ccc(C(=O)N3c4ccccc4CC3C)n2)n1 (stereo not drawn) [Q-0377]
7.40

Give the reported value of pIC50 for this record: Cc1c(C(=O)N2CCC(C(O)(C(F)(F)F)C(F)(F)F)CC2)cnn1-c1nc2c(c(=O)[nH]1)CCC2 [Q-0701]
8.70

Read off the recorded pIC50 for Cc1cc(=O)[nH]c(-n2ncc(C(=O)NC3CCc4ccccc43)c2C)n1 (stereo not drawn) [Q-0363]
7.52

Determine its reported pIC50: Cc1c(C(=O)N2CCN(S(=O)(=O)C(C)C)CC2)cnn1-c1nn2cccc2c(=O)[nH]1 [Q-1558]
8.70

Hello, please tell me recorded pIC50 for this one: Cc1c(C(=O)N2CCC[C@@H]2C(=O)OCc2ccccc2)cnn1-c1nc2c(c(=O)[nH]1)CCC2 [Q-0496]
8.15

Look up and report measured pIC50 for this entry: Cc1c(C(=O)N2CCN(c3nc(-c4ccnc(F)c4)cs3)CC2)cnn1-c1nn2cccc2c(=O)[nH]1 [Q-1196]
8.52

Please supply the value of reported pIC50 for the item Cc1c(C(=O)N2CCn3cccc3C2)cnn1-c1nn2cccc2c(=O)[nH]1 [Q-1925]
9.00

Identify pIC50 associated with the compound Cc1c(C(=O)Nc2ccccc2N2CCOCC2)cnn1-c1nc2c(c(=O)[nH]1)CCC2 [Q-0532]
7.70

Give the measured pIC50 for Cc1c(C(=O)N2CCC(C(C)(C)C#N)CC2)cnn1-c1nc2ccsc2c(=O)[nH]1 [Q-0531]
8.40

###

SNAP-hSPR (sepiapterin reductase, SPR) (Homo sapiens) data, read-out IC50
Numeric answer only, unit nM assumed.

Provide IC50 value for the following compound: Cc1c(C(=O)N2CCN(c3nc(-c4ccc(F)nc4)cs3)CC2)cnn1-c1nn2cccc2c(=O)[nH]1 [Q-1180]
2

Specify measured IC50 for Cc1c(C(=O)N2CC(N3CCC(F)(F)C3)C2)cnn1-c1nc2c(c(=O)[nH]1)CC(C)(C)C2 [Q-1564] .
5000

Supply recorded IC50 for Cc1c(C(=O)N2CCN(S(=O)(=O)c3ccc(C(C)(C)C)cc3)CC2)cnn1-c1nn2cccc2c(=O)[nH]1 [Q-1800] here.
2

Fill in reported IC50 for this entry: O=C(c1cnn(-c2nc3sccc3c(=O)[nH]2)c1)N1CCC(CC(F)(F)F)CC1 [Q-0752]
4

State its IC50: Cc1c(C(=O)N2CCN(S(=O)(=O)c3cc(C(F)(F)F)cc(C(F)(F)F)c3)CC2)cnn1-c1nn2cccc2c(=O)[nH]1 [Q-1835]
4

Fill in reported IC50 for this entry: Cc1c(C(=O)N2CCN(c3cccc(Cl)c3)CC2)cnn1-c1nn2cccc2c(=O)[nH]1 [Q-0830]
1

###

TESTED_ON: SNAP-hSPR (sepiapterin reductase, SPR) (Homo sapiens, UniProt P35270)
Flag rule - IC50 less than 30 nM flags yes (1); the remaining entries get no (0).

A record lists Cc1c(C(=O)N2CCC(S(=O)(=O)C(C)C)CC2)cnn1-c1nn2cccc2c(=O)[nH]1 [Q-0977] . Is its IC50 below 30 nM?
yes (1)

Identify whether the molecule O=C(c1cnn(-c2nc3c(c(=O)[nH]2)CCC3)c1)N1CCC(C(F)(F)F)CC1 [Q-0526] records IC50 below 30 nM.
yes (1)

Say whether its IC50 is strictly beneath 30 nM. Entry: CCn1ccc2c(=O)[nH]c(-n3ncc(C(=O)N4CC5CC(C4)N5CC(F)(F)F)c3C)nc21 [Q-1341]
no (0)

Bench note: check whether O=c1[nH]c(-c2ccc(Br)cn2)nc2c1CCC2 [Q-0465] shows IC50 below 30 nM
no (0)

Does Cc1c(C(=O)N2CCCC(C(F)(F)F)CC2)cnn1-c1nn2cccc2c(=O)[nH]1 (stereo not drawn) [Q-1124] have IC50 strictly under 30 nM?
yes (1)

Please check: IC50 for Cc1c(C(=O)N2CCN(c3nc(-c4cccc(F)c4)cs3)CC2)cnn1-c1nn2cccc2c(=O)[nH]1 [Q-1156] , strictly under 30 nM or not?
yes (1)

Below 30 nM on IC50? Entry N#CC1(c2ccccc2)CCN(C(=O)c2cnn(-c3nc4c(c(=O)[nH]3)CCC4)c2)CC1 [Q-0726]
yes (1)

Lab note: confirm whether the reported IC50 for this molecule is below 30 nM, equality not counting. molecule: Cc1c(C(=O)N2CCC3(CCCC3=O)CC2)cnn1-c1nn2cccc2c(=O)[nH]1 [Q-1192]
yes (1)

For Cc1c(C(=O)N(C)Cc2nnc(-c3ccc(Cl)cc3)o2)cnn1-c1nc2c(c(=O)[nH]1)CCC2 [Q-0486] , is the recorded IC50 below the cut-off of 30 nM?
yes (1)

Determine if Cc1c(C(=O)N2CCC(C(F)(F)F)CC2)cnn1-c1nc2[nH]ncc2c(=O)[nH]1 [Q-0438] shows IC50 strictly lower than 30 nM.
no (0)

# check: IC50 < 30 nM for Cc1c(C(=O)N2CC3CC(C2)N3CC(F)(F)F)cnn1-c1nc2c(ccn2C)c(=O)[nH]1 [Q-1365]
no (0)

###

// endpoint IC50 / system UniProt P35270
State just the number; it will be interpreted in nM.

Param request: IC50 | system UniProt P35270 | item Cc1c(C(=O)N2CCN(C(=O)OC(C)(C)C)C[C@H]2C)cnn1-c1nn2cccc2c(=O)[nH]1 [Q-0892]
2

Fill: IC50 (UniProt P35270) for this molecule Cc1c(C(=O)N2CCC(c3nc4ccccc4s3)CC2)cnn1-c1nn2c(F)ccc2c(=O)[nH]1 [Q-0607]
5

Name the value of IC50 reported for Cc1c(C(=O)N2CCN(CC(F)(F)F)C3(CCC3)C2)cnn1-c1nn2cccc2c(=O)[nH]1 [Q-1200] when tested on UniProt P35270.
1

# lookup: UniProt P35270 IC50, key = Cc1cc(=O)n(C)c(-n2ncc(C(=O)N3CCc4ccccc4C3)c2C)n1 [Q-0455]
16000

Please indicate recorded IC50 of Cc1c(C(=O)N2CCCC(Oc3ccccc3)C2)cnn1-c1nc2c(c(=O)[nH]1)CCC2 (centres unmarked) [Q-0468] measured with UniProt P35270.
7
